System: Klebsiella pneumoniae
Measurement Description: Antibacterial activity against Klebsiella pneumoniae assessed as growth inhibition at 25 ug/well after 24 hrs by agar well diffusion method
Format: functional
Details: read-out: DIZ

# Smiles Input, Result Units, zone of inhibition at 25 µg/disc
rows = [
    ("c1ccc(-c2csc(Nc3cc(-c4ccccc4)n(-c4nc(-c5ccccc5)cs4)n3)n2)cc1", "mm", 30),
    ("NC(=S)n1nc(Nc2nc(-c3ccc(Cl)cc3)c[nH]2)cc1-c1ccc(Cl)cc1", "mm", 20),
    ("Clc1ccc(-c2coc(Nc3cc(-c4ccc(Cl)cc4)n(-c4nc(-c5ccc(Cl)cc5)cs4)n3)n2)cc1", "mm", 17),
    ("Cc1ccc(-c2c[nH]c(Nc3cc(-c4ccc(C)cc4)n(C(N)=S)n3)n2)cc1", "mm", 10),
    ("Cc1ccc(-c2csc(Nc3cc(-c4ccc(C)cc4)n(C(N)=S)n3)n2)cc1", "mm", 11),
    ("NC(=S)n1nc(Nc2nc(-c3ccccc3)cs2)cc1-c1ccccc1", "mm", 23),
    ("Clc1ccc(-c2c[nH]c(Nc3cc(-c4ccc(Cl)cc4)n(-c4nc(-c5ccc(Cl)cc5)cs4)n3)n2)cc1", "mm", 32),
    ("Clc1ccc(-c2csc(Nc3cc(-c4ccc(Cl)cc4)n(-c4nc(-c5ccc(Cl)cc5)cs4)n3)n2)cc1", "mm", 35),
    ("NC(=S)n1nc(Nc2nc(-c3ccc(Cl)cc3)co2)cc1-c1ccc(Cl)cc1", "mm", 16),
]

* * *

Recorded MBC values for a group of compounds are listed next.
System: Pseudomonas aeruginosa
Measurement Description: Bactericidal activity against Pseudomonas aeruginosa after 24 hrs
Type: functional

# Smiles Input, MBC
rows = [
    ("c1ccc(-c2csc(Nc3cc(-c4ccccc4)n(-c4nc(-c5ccccc5)cs4)n3)n2)cc1", ">200 µg"),
    ("c1ccc(-c2c[nH]c(Nc3cc(-c4ccccc4)n(-c4nc(-c5ccccc5)cs4)n3)n2)cc1", ">200 µg"),
    ("Clc1ccc(-c2c[nH]c(Nc3cc(-c4ccc(Cl)cc4)n(-c4nc(-c5ccc(Cl)cc5)cs4)n3)n2)cc1", "200 µg"),
    ("Clc1ccc(-c2csc(Nc3cc(-c4ccc(Cl)cc4)n(-c4nc(-c5ccc(Cl)cc5)cs4)n3)n2)cc1", "200 µg"),
]

* * *

Tested on: Pseudomonas aeruginosa
Measurement Description: Antibacterial activity against Pseudomonas aeruginosa assessed as growth inhibition at 100 ug/well after 24 hrs by agar well diffusion method
Type: functional
Details: read-out: DIZ
Recorded zone of inhibition at 100 µg/disc values for a group of compounds are listed next.

# Smiles Input, Result Units, zone of inhibition at 100 µg/disc
measured = [
    ("c1ccc(-c2coc(Nc3cc(-c4ccccc4)n(-c4nc(-c5ccccc5)cs4)n3)n2)cc1", "mm", 6),
    ("Clc1ccc(-c2c[nH]c(Nc3cc(-c4ccc(Cl)cc4)n(-c4nc(-c5ccc(Cl)cc5)cs4)n3)n2)cc1", "mm", 23),
    ("O=C(N[C@H](CO)[C@H](O)c1ccc([N+](=O)[O-])cc1)C(Cl)Cl", "mm", 30),
    ("NC(=S)n1nc(Nc2nc(-c3ccc(Cl)cc3)co2)cc1-c1ccc(Cl)cc1", "mm", 12),
    ("c1ccc(-c2c[nH]c(Nc3cc(-c4ccccc4)n(-c4nc(-c5ccccc5)cs4)n3)n2)cc1", "mm", 20),
    ("Cc1ccc(-c2csc(Nc3cc(-c4ccc(C)cc4)n(C(N)=S)n3)n2)cc1", "mm", 8),
    ("Clc1ccc(-c2coc(Nc3cc(-c4ccc(Cl)cc4)n(-c4nc(-c5ccc(Cl)cc5)cs4)n3)n2)cc1", "mm", 13),
    ("Cc1ccc(-c2c[nH]c(Nc3cc(-c4ccc(C)cc4)n(-c4nc(-c5ccc(C)cc5)cs4)n3)n2)cc1", "mm", 10),
    ("NC(=S)n1nc(Nc2nc(-c3ccccc3)cs2)cc1-c1ccccc1", "mm", 17),
]
